# protocolDescription: yeast display, Sf9 membrane polyspecificity reagent, FACS + sequencing; frameworks hold sequencing errors
measureName: polyreactivity (PSR sort gate)

Worked cases, answers included:
| residueString | polyreactivity (PSR sort gate) |
| --- | --- |
| QVQLVESGGGLVQAGGSLRLSCAASGRTFRGYAMGWYRQAPGKERELVAAITWSGGRTYYADSVKGRFTISRDNAKNTVYLQMNSLKPEDTAVYYCATSPGRWGWGYDYEYWGQGTQVTVSS | low polyreactivity |
| QVQLVESGGGLVQAGGSLRLSCPASGIIFHPYAMGWYRQAPGKERQLVAVITWPGDSTYYADSVKGRFTISRDNAKNTVYVQMNSLKPEDTAVYYCNVEAWGTSGELPYDYWGQGTQVTVSS | low polyreactivity |
| QVQLVESGGGLVQAGGSLRLSCAASGLIFGSYVMGWYRQAPGKERELVAAISSSGGSTYYADSVKVRFTISRDNENNTFYLQMNSLKPEDTAVYYCAARYTYSADKGYYWGQGTQVTVSS | high polyreactivity |
| QVQLVESGGGLVQAGGSLRLSCAASGSTLYPNAMGWYRQAPGKERELVAAIRRRGGSTYYADSVKGRFTISRDNAKNTVYLQMNSLKPEDTAVYYCAAYPYKQDPTLVHYDYWGQGTQVTVSS | low polyreactivity |
| QVQLVESGGGLVQAGGSLRLSCAASGRTFLTNTMGWYRQAPGQEREWVATISNGGRTNYADSVKGRFTISRDNAKNTVYLQMNSLKPEDTAVYYCAKDYRAYHPHWYGSTFGWGQGTQVTVSS | high polyreactivity |
| QVQLEESGGGLVQAGGSLRLICAASGSTFGDNAMGWSRQAPGKEGEFVAGISTNGGSTYYADSVKGRFTISRDNAKNTFYLQMNSLKPEDIAVYSCAAVNYYDQYGDYYWGQGTQVTVSS | low polyreactivity |

Record request: polyreactivity (PSR sort gate) value, item QVQLVESGGGLVQAGGSLRLSCAASGSIFTLYDMGWYRQAPGKERELVAAITSGGSTDYADTVKGRFTISRDNAKNTVYLQMNSLKPEDTAVYYCNAESFTYWYRGASREYDYWGQGTQVTVSS
low polyreactivity

Record request: polyreactivity (PSR sort gate) value, item QVQLEESGGGLVQAGGSLRLTCAASGITFGTYAMGWYRQAPGKEREFVAGYYADSVKGRFTISRDNAKNTVYLQMNSLKPEDTAVYYCAADYLYHDDVDYWGQGTQVTVSS
low polyreactivity

Record request: polyreactivity (PSR sort gate) value, item QVQLVESGGGLVQAGGSLRLSCAASGRTFRYYAMGWYRQAPGKERELVAAISWSGSSTYYADSVKGRFTISRDNAKNTVYLQMNSLKAEDTAVYFCNAKGVRGKYFDYSRVSAYDYWGQGTQVTVSS
low polyreactivity

Record request: polyreactivity (PSR sort gate) value, item QDQLVESGGGLVQAGGSLRLSCAASGFTCRYYAMGWYRQAPGKERELVAAITGSGTRTYYADSVKGRFTISRDNAKNTVYLQMNSLKPEETAVYYCYPPRQPRWFDYWGQGTQVTVSS
high polyreactivity

Record request: polyreactivity (PSR sort gate) value, item QVQLVESGGGLVQAGGSLRLSCAASGRTFYPYAMGWYRKAPVKERDLVAAISWSGGSTRYADSVKGRFTISRDNAKNTVDLQMNSLKPEDTAVYYCNTQYSWYYPADYDYWGQGTQVTVSS
low polyreactivity
